test system: LXRb homodimer (NR concentration 270 nM); assay: PBM binding z-score (relative to random genomic background probes); higher = stronger binding; sequences stand for … in GC…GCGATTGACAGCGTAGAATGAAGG
Classification field: enter Fulfilled for PBM binding z-score values not below 0.3, Not fulfilled for values below it.

As a guide, the following entries are already answered.
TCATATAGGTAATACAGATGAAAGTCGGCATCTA
Not fulfilled
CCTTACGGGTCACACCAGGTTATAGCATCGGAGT
Not fulfilled
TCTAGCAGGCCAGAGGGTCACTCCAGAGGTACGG
Not fulfilled
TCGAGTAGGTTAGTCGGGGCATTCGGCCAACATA
Not fulfilled

[in] Is PBM binding z-score at least 0.3? Consider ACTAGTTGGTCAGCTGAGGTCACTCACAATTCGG
[out] Fulfilled

[in] Textbook exercise: given the entry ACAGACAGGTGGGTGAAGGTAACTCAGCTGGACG , state whether its PBM binding z-score is greater than or equal to 0.3.
[out] Not fulfilled

[in] Does PBM binding z-score meet or surpass 0.3 for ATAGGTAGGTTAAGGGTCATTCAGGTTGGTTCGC ?
[out] Fulfilled

[in] Can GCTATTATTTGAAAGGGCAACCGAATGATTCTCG be said to have PBM binding z-score at or above 0.3?
[out] Fulfilled
